# target.under.test: NK-2 receptors (Cavia porcellus)
# Construct: the NK-2 receptors present in the gall-bladder preparations; from tissue; host or cells: Pirbright-White guinea pig: isolated gall-bladder (A2); anaesthetised whole animal (A3)
# Sequence (Q64077 1-402): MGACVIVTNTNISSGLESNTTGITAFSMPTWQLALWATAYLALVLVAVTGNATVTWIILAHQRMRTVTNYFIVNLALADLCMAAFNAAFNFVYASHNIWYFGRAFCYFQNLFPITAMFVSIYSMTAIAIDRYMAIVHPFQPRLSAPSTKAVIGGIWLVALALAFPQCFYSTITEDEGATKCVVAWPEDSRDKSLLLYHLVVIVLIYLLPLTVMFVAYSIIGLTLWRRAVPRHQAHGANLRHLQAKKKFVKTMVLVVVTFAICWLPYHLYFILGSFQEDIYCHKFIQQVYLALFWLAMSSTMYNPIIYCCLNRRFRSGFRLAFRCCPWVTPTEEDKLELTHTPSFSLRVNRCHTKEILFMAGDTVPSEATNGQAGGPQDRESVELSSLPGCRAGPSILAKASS
# assay.remarks: NK-2-receptor-antagonistic effectiveness in vivo in anaesthetised guinea pigs (NKA test stimulus)
# Design: species or system guinea pig
# assay.setup: guinea pig, iv, cumulative dosing, NKA stimulus 1 min. after administration; respiratory resistance (bronchoconstriction); read-out: ED50 Respiratory resistance, i.v. after 1 min. (cumulative)
measured.metric: ED50 (µmol/kg)

CN(C[C@@H](CCN1CCN(C(c2ccsc2)[C@H](O)[C@H](O)CO)CC1)c1ccc(Cl)c(Cl)c1)C(=O)c1ccccc1 (some centres unmarked) [Example 15]    0.079

A. CN(CC(CCN1CCN(C(c2ccco2)[C@H](O)[C@@H](O)[C@H](O)CO)CC1)c1ccc(Cl)c(Cl)c1)C(=O)c1ccccc1 (mixture of isomers) [Example 13]
B. CN(C[C@@H](CCN1CCN(C(c2ccsc2)[C@H](O)CO)CC1)c1ccc(Cl)c(Cl)c1)C(=O)c1ccccc1 (some centres unmarked) [Example 5]
Which value of ED50 is smaller, the one for A or the one for B ? Identify your pick by its label.
A

P. CC(=O)OC[C@@H](OC(C)=O)[C@H](OC(C)=O)[C@@H](OC(C)=O)C(c1ccsc1)N1CCN(CC[C@H](CN(C)C(=O)c2ccccc2)c2ccc(Cl)c(Cl)c2)CC1 (some centres unmarked) [Example 14]
Q. CN(C[C@@H](CCN1CCN(C(c2ccsc2)[C@H](O)[C@@H](O)[C@H](O)CO)CC1)c1ccc(Cl)c(Cl)c1)C(=O)c1ccccc1 (some centres unmarked) [Example 1]
Which value of ED50 is smaller, the one for P or the one for Q ? Identify your pick by its label.
Q
